# Test system: Abutilon theophrasti
# procedure-details: Pre-emergence herbicidal action
# Type: in vivo
# conditions-used: application rate 20 g/ha
experimental-readout: Abutilon theophrasti (efficacy in %)
Give bare numbers, in %.

- compound: "Cn1c(C(F)(F)F)cc(=O)n(-c2cc(Oc3cccnc3OCC(=O)OCCOCc3ccccc3)c(Cl)cc2F)c1=O [I.15-6]"
  Abutilon theophrasti (efficacy in %): 100
- compound: "Cn1c(C(F)(F)F)cc(=O)n(-c2cc(Oc3cccnc3OCC(=O)OCC3OCCO3)c(Cl)cc2F)c1=O [I.15-424]"
  Abutilon theophrasti (efficacy in %): 100

// moving on: another record for Abutilon theophrasti (efficacy in %)
Record COCCOCCOCCOCCOC(=O)COc1ncccc1Oc1cc(-n2c(=O)cc(C(F)(F)F)n(C)c2=O)c(F)cc1Cl [I.15-154] has Abutilon theophrasti Abutilon theophrasti (efficacy in %) equal to 100
